test.system: Cellular tumor antigen p53 (Homo sapiens) (UniProt P04637)
Sequence (P04637 whole entry, looked up): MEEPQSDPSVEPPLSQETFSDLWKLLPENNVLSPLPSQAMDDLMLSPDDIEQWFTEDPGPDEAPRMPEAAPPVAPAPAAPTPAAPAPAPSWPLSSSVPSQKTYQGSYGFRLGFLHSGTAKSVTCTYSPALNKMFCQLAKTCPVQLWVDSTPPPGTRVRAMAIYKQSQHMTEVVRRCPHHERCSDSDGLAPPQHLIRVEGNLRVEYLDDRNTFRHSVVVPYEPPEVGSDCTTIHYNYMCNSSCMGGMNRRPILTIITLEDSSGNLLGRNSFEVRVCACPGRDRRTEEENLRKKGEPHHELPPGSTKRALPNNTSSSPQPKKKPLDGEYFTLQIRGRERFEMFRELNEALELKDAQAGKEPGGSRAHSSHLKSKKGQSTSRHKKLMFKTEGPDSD
assay.notes: Primary qHTS for small molecule compounds that upregulate eGFP-tagged delta133p53alpha (in N-terminal) cells. (AID 2060322);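 also: cells pre-induced with doxycycline then dosed without doxycycline; series mostly up to about 56 µM; 0% = DMSO vehicle and 100% = reference activator; nearly all actives have a fitted effect of over 75% in size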
assay.setup: NCI-H358 eGFP-delta133p53alpha fluorescence, 24 h; active compounds read high
Results filed as inconclusive are left out.
assay.metric: activation (%)
Express it in %; write the number only.

For record Cc1cc(N=Nc2ccc(S(=O)(=O)Nc3ccccn3)cc2)c(N)cc1O the listed activation is -5

For record C[C@@H]1O[C@@H](O[C@H]2[C@H](O[C@H]3[C@H](O[C@H]4CC[C@@]5(CO)C(CC[C@]6(C)C5CC=C5C7CC(C)(C)C[C@@H](O)[C@]7(C)CC[C@]56C)C4(C)C)O[C@H](C(=O)O)[C@@H](O)[C@@H]3O)OC[C@@H](O)[C@@H]2O)[C@H](O)[C@H](O)[C@H]1O (stereo not given in full) the listed activation is -15.3

For record Cn1ncc2cc(-c3cnc(N)c(Cl)c3N3CCC4(CCNC4=O)CC3)ccc21 the listed activation is -11.6

For record C[C@H]1CC(=O)C2=C(C1)C(O)C(O)[C@@]1(O)[C@H]2C(=O)c2cccc(O)c2[C@@H]1O (stereo not given in full) the listed activation is 3.05

For record Nc1nc(Nc2ccccc2)nc2c1ncn2[C@@H]1O[C@H](CO)[C@@H](O)[C@H]1O the listed activation is 8.56

For record CC1(C(=O)O)CCCC2(C)C1CCC13CC(CCC21)C1(CO)OC31 (stereo not given) the listed activation is -9.16

For record CCCO[C@@H]1O[C@H](CO)[C@@H](O)[C@H](O)[C@H]1O[C@@H]1OC[C@@H](O)[C@H](O)[C@H]1O the listed activation is -15.3

For record COc1cc(/C=C/C(=O)OC2[C@H](O)CC(O)(C(=O)O)C[C@H]2O)ccc1O (stereo not given in full) the listed activation is 7.63

For record COCCN(C(=O)c1cc(OC)c(OC)c(OC)c1)c1nc(-c2ccccc2)cs1 the listed activation is 19.1

For record CCOC(=O)C(CCc1ccccc1)NC1CCCN2CCCC(C(=O)O)N2C1=O (stereo not given) the listed activation is -9.55

----------
test.system: Cellular tumor antigen p53 (Homo sapiens) (UniProt P04637)
assay.notes: Primary qHTS for small molecule compounds that upregulate eGFP-tagged delta133p53alpha (in N-terminal) cells. (AID 2060322);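 also: cells pre-induced with doxycycline then dosed without doxycycline; series mostly up to about 56 µM; 0% = DMSO vehicle and 100% = reference activator; nearly all actives have a fitted effect of over 75% in size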
assay.setup: NCI-H358 eGFP-delta133p53alpha fluorescence, 24 h; active compounds read high
Results filed as inconclusive are left out.
Record form. Attribute: activation. Fill in for each entry.
Express it in %; write the number only.

For record CCC(CC)CC1(C(=O)Nc2ccccc2SC(=O)C(C)C)CCCCC1 the listed activation is 18.8

For record CC(C)(C)NC[C@H](O)COc1nsnc1N1CCOCC1 the listed activation is -9.94

For record O=[N+]([O-])c1cncn1CCN1CCOCC1 the listed activation is -23.4

For record Cc1cc(SCc2sc(-c3ccc(C(F)(F)F)cc3)nc2C)ccc1OCC(=O)O the listed activation is -4.33

For record C=C(CCO[C@@H]1O[C@H](CO)[C@@H](O)[C@H](O)[C@H]1O)C(=O)O the listed activation is -22.3

For record N[C@@H](CCNCc1ccc(Cl)cc1)C(=O)N1CCCCC1 the listed activation is 1.91

For record OCC1OC(Oc2cc(O)cc(/C=C/c3ccc(O)cc3)c2)C(O)C(O)C1O (centres undefined) the listed activation is -15.3

For record C=C1C(OC(C)=O)CCC2(C)CC3(OC)OC(=O)C(C)=C3CC12 (centres undefined) the listed activation is 17.9

For record CC1(C=O)CCCC2(C)C1CCC13CC(CO)C(CCC12)C3 (centres undefined) the listed activation is -9.92

For record N[C@@H](Cc1ccc(F)cc1)C(=O)O the listed activation is -38.4

For record O=C(CS(=O)Cc1ccco1)NC/C=C\COc1cc(CN2CCCCC2)ccn1 (centres undefined) the listed activation is -5.08

For record CCCCNC(=O)[C@@H]1Cc2ccccc2N1C(=O)[C@@H](N)CC the listed activation is -9.55

For record COc1ccc(S(=O)(=O)N2CCC[C@H]2C(=O)Nc2cc(C)cc(C)c2)cc1 the listed activation is -17.2

For record Cn1c(=O)c2c(ncn2CC(=O)O)n(C)c1=O the listed activation is 1.69

For record C=C1C(=O)OC2/C=C(\CO)CC/C=C(\C=O)C(OC)C(OC(=O)C(C)CC)C12 (centres undefined) the listed activation is -6.11

For record CC1CCC2C(C(=O)O)=CC3CC(C)(C)CC132 (centres undefined) the listed activation is 2.29

For record COc1ccc(S(=O)(=O)Nc2cc(Cl)cc(Cl)c2OC)cc1N1CCNCC1 the listed activation is 8.04

For record OC[C@H]1O[C@@H](OC(CCCCc2ccc(O)cc2)CCc2ccc(O)cc2)[C@H](O[C@@H]2OC[C@](O)(CO)[C@H]2O)[C@@H](O)[C@@H]1O (some centres undefined) the listed activation is -24.4

For record OC[C@@H](O)[C@@H](O[C@@H]1O[C@H](CO)[C@H](O)[C@H](O)[C@H]1O)[C@H](O)[C@@H](O)CO the listed activation is -8.37
